So I've got Km readings for Enterobacter cloacae, take a look.
Report only the number, with the unit µM understood.

As a guide, the following entries are already answered.
molecular-string | Km [µM]
CC1(C)S[C@@H]2[C@H](NC(=O)[C@H](N)c3ccc(O)cc3)C(=O)N2[C@H]1C(=O)O | 180
CC1(C)S[C@@H]2[C@H](NC(=O)Cc3ccccc3)C(=O)N2[C@H]1C(=O)O | 20

Simply: CC(=O)OCC1=C(C(=O)O)N2C(=O)[C@@H](NC(=O)Cc3cccs3)[C@H]2SC1 , Enterobacter cloacae, Km = 400

Simply: CCN1CCN(C(=O)N[C@@H](C(=O)N[C@@H]2C(=O)N3[C@@H]2SC(C)(C)[C@@H]3C(=O)O)c2ccccc2)C(=O)C1=O , Enterobacter cloacae, Km = 50

====

So I've got kcat/Km readings for Enterobacter cloacae, take a look.
Report only the number, with the unit mM⁻¹ s⁻¹ understood.

As a guide, the following entries are already answered.
molecular-string | tested-system | kcat/Km [mM⁻¹ s⁻¹]
CC(=O)OCC1=C(C(=O)O)N2C(=O)[C@@H](NC(=O)Cc3cccs3)[C@H]2SC1 | Enterobacter cloacae | 90
CCN1CCN(C(=O)N[C@@H](C(=O)N[C@@H]2C(=O)N3[C@@H]2SC(C)(C)[C@@H]3C(=O)O)c2ccccc2)C(=O)C1=O | Enterobacter cloacae | 1500
CC1(C)S[C@@H]2[C@H](NC(=O)Cc3ccccc3)C(=O)N2[C@H]1C(=O)O | Enterobacter cloacae | 10000

Simply: CC1(C)S[C@@H]2[C@H](NC(=O)[C@H](N)c3ccc(O)cc3)C(=O)N2[C@H]1C(=O)O , Enterobacter cloacae, kcat/Km = 3300
